Test: Cytotoxicity against HUVEC assessed as cell viability at 100 uM incubated for 24 hrs by CCK-8 assay relative to control
Format: cell-based
Conditions: human, read-out: Activity
experimental-endpoint: viability at 24 h, 100 µM

C=CC(=O)N1C(=O)CC(c2ccc(F)cc2)Sc2ccccc21 (stereo unspecified) yielded viability at 24 h, 100 µM of > 70%

---

Tested on: HL-60
Experiment: Cytotoxicity against human HL-60 cells assessed as reduction in cell viability measured after 24 hrs by CCK-8 assay
Type: functional, cell-based
Conditions: HL-60, 24 h
experimental-endpoint: log10 IC50 (log10 of the value in µM)
Please be aware that the numbers have been log10-transformed from IC50 in µM.

// compound C=CC(=O)N1C(=O)CCSc2ccccc21 , assay HL-60, log10 IC50 value: 1.65

// compound C=CC(=O)N1C(=O)CC(c2ccc(-c3ccccc3)cc2)Sc2ccccc21 (stereo not drawn) , assay HL-60, log10 IC50 value: 2.07

// compound C=CC(=O)N1C(=O)CC(c2ccc([N+](=O)[O-])cc2)Sc2ccccc21 (stereo not drawn) , assay HL-60, log10 IC50 value: 2.03

// compound C=CC(=O)N1C(=O)CC(C)Sc2ccccc21 (stereo not drawn) , assay HL-60, log10 IC50 value: 2.30

// compound C=CC(=O)N1C(=O)CC(c2ccc(N3CCOCC3)cc2)Sc2ccccc21 (stereo not drawn) , assay HL-60, log10 IC50 value: 1.99

// compound C=CC(=O)N1C(=O)CC(c2ccc(C)cc2)Sc2ccccc21 (stereo not drawn) , assay HL-60, log10 IC50 value: 1.97

// compound C=CC(=O)N1C(=O)CC(c2ccc(C(F)(F)F)cc2)Sc2ccccc21 (stereo not drawn) , assay HL-60, log10 IC50 value: 2.03

// compound C=CC(=O)N1C(=O)CC(c2cccs2)Sc2ccccc21 (stereo not drawn) , assay HL-60, log10 IC50 value: 2.84

// compound C=CC(=O)N1C(=O)CC(c2ccccc2)Sc2ccccc21 (stereo not drawn) , assay HL-60, log10 IC50 value: 1.99

// compound C=CC(=O)N1C(=O)CC(c2ccc(C(=O)OC)cc2)Sc2ccccc21 (stereo not drawn) , assay HL-60, log10 IC50 value: 2.01

// compound C=CC(=O)N1C(=O)CC(c2ccc(Br)cc2)Sc2ccccc21 (stereo not drawn) , assay HL-60, log10 IC50 value: 2.10

// compound C=CC(=O)N1C(=O)CC(c2ccc(Cl)cc2)Sc2ccccc21 (stereo not drawn) , assay HL-60, log10 IC50 value: 1.98

// compound C=CC(=O)N1C(=O)CC(c2ccccc2Cl)Sc2ccccc21 (stereo not drawn) , assay HL-60, log10 IC50 value: 1.96

// compound C=CC(=O)N1C(=O)CC(c2ccc(C#N)cc2)Sc2ccccc21 (stereo not drawn) , assay HL-60, log10 IC50 value: 2.06

// compound C=CC(=O)N1C(=O)CC(c2ccc(OC)cc2)Sc2ccccc21 (stereo not drawn) , assay HL-60, log10 IC50 value: 1.96

// compound C=CC(=O)N1C(=O)CC(c2ccc(F)cc2)Sc2ccccc21 (stereo not drawn) , assay HL-60, log10 IC50 value: 1.94

// compound C=CC(=O)N1C(=O)CC(c2cccc(Cl)c2)Sc2ccccc21 (stereo not drawn) , assay HL-60, log10 IC50 value: 1.97

// compound C=CC(=O)N1C(=O)CC(c2ccccc2C(F)(F)F)Sc2ccccc21 (stereo not drawn) , assay HL-60, log10 IC50 value: 1.98
